ASSAY INFO: Cmax in ICR mouse at 10 mg/kg, po by LC-MS/MS analysis
Format: ADME, organism-based
Design: dose 10 mg/kg, route po
ASSAY CONDITIONS: in vivo
Cmax by entry:

- MOL SMILES: "COc1cc2nc(C)nc(N[C@H](C)c3cc(N)cc(C(F)(F)F)c3)c2cc1O[C@H]1CCOC1"
  Cmax / ng/mL: 241
- MOL SMILES: "CC(=O)N1CCN2c3cc4c(N[C@H](C)c5cc(N)cc(C(F)(F)F)c5)nc(C)nc4cc3OC[C@H]2C1"
  Cmax / ng/mL: 8.89
- MOL SMILES: "CC(=O)N1CCN2c3cc4c(N[C@H](C)c5cccc(C(F)F)c5F)nc(C)nc4cc3OC[C@H]2C1"
  Cmax / ng/mL: 63.4
- MOL SMILES: "CC(=O)N1CCN2c3cc4c(N[C@H](C)c5cccc(C(F)(F)C(C)(C)O)c5F)nc(C)nc4cc3OC[C@H]2C1"
  Cmax / ng/mL: 5.03

###

ASSAY INFO: Elimination rate constant in ICR mouse at 20 mg/kg, po by LC-MS/MS analysis
Assay type: ADME, organism-based
ASSAY CONDITIONS: in vivo, po, 20 mg/kg
REPORTED METRIC: Kel

- COMPOUND: "CNC(=O)N1CCN2c3cc4c(N[C@H](C)c5cccc(C(F)F)c5F)nc(C)nc4cc3OC[C@H]2C1"
  REPORTED METRIC: "Kel"
  EXPERIMENTAL RESULT: "0.26 h⁻¹"
- COMPOUND: "Cc1nc(N[C@H](C)c2cccc(C(F)F)c2F)c2cc3c(cc2n1)OC[C@H]1CN(C(=O)NC2CC2)CCN31"
  REPORTED METRIC: "Kel"
  EXPERIMENTAL RESULT: "0.14 h⁻¹"
- COMPOUND: "Cc1nc(N[C@H](C)c2cccc(C(F)F)c2F)c2cc3c(cc2n1)OC[C@H]1CN(C(=O)C2CCO2)CCN31 (some centres undefined)"
  REPORTED METRIC: "Kel"
  EXPERIMENTAL RESULT: "0.13 h⁻¹"
- COMPOUND: "Cc1nc(N[C@H](C)c2cccc(C(F)F)c2F)c2cc3c(cc2n1)OC[C@H]1CN(C(=O)[C@H]2CCOC2)CCN31"
  REPORTED METRIC: "Kel"
  EXPERIMENTAL RESULT: "0.25 h⁻¹"

###

ASSAY INFO: Metabolic stability in rat liver microsomes assessed as half life in presence of NADPH by LC-MS/MS analysis
Type: ADME, Microsome

- MOL SMILES: "COc1cc2nc(C)nc(N[C@H](C)c3cc(N)cc(C(F)(F)F)c3)c2cc1O[C@H]1CCOC1"
  VALUE UNITS: "min"
  half-life: 36.1
- MOL SMILES: "Cc1nc(N[C@H](C)c2cccc(C(F)F)c2F)c2cc3c(cc2n1)OC[C@H]1CN(C(=O)[C@H]2CCOC2)CCN31"
  VALUE UNITS: "min"
  half-life: 67.4

###

ASSAY INFO: Tmax in ICR mouse at 10 mg/kg, po by LC-MS/MS analysis
Assay type: ADME, organism-based
ASSAY CONDITIONS: in vivo
REPORTED METRIC: Tmax

- MOL SMILES: "COc1cc2nc(C)nc(N[C@H](C)c3cc(N)cc(C(F)(F)F)c3)c2cc1O[C@H]1CCOC1"
  REPORTED METRIC: "Tmax"
  EXPERIMENTAL RESULT: "30 min"
- MOL SMILES: "CC(=O)N1CCN2c3cc4c(N[C@H](C)c5cccc(C(F)(F)C(C)(C)O)c5F)nc(C)nc4cc3OC[C@H]2C1"
  REPORTED METRIC: "Tmax"
  EXPERIMENTAL RESULT: "37.5 min"
- MOL SMILES: "CC(=O)N1CCN2c3cc4c(N[C@H](C)c5cc(N)cc(C(F)(F)F)c5)nc(C)nc4cc3OC[C@H]2C1"
  REPORTED METRIC: "Tmax"
  EXPERIMENTAL RESULT: "60 min"
- MOL SMILES: "CC(=O)N1CCN2c3cc4c(N[C@H](C)c5cccc(C(F)F)c5F)nc(C)nc4cc3OC[C@H]2C1"
  REPORTED METRIC: "Tmax"
  EXPERIMENTAL RESULT: "19.8 min"

###

ASSAY INFO: AUC in ICR mouse at 20 mg/kg, po by LC-MS/MS analysis
Type: ADME, organism-based
Parameters: dose 20 mg/kg, route po
ASSAY CONDITIONS: in vivo
So basically, if AUC comes in under 2000 ng·h/mL it's true (1), and if it's 2000 ng·h/mL or more it's false (0).

- MOL SMILES: "Cc1nc(N[C@H](C)c2cccc(C(F)F)c2F)c2cc3c(cc2n1)OC[C@H]1CN(C(=O)C2(F)CC2)CCN31"
  CLASS: "false (0)"
- MOL SMILES: "Cc1nc(N[C@H](C)c2cccc(C(F)F)c2F)c2cc3c(cc2n1)OC[C@H]1CN(C(=O)[C@@H]2C[C@H]2F)CCN31"
  CLASS: "false (0)"
- MOL SMILES: "Cc1nc(N[C@H](C)c2cccc(C(F)F)c2F)c2cc3c(cc2n1)OC[C@H]1CN(C(=O)[C@H]2CCOC2)CCN31"
  CLASS: "false (0)"
- MOL SMILES: "Cc1nc(N[C@H](C)c2cccc(C(F)F)c2F)c2cc3c(cc2n1)OC[C@H]1CN(C(=O)NC2CC2)CCN31"
  CLASS: "false (0)"
- MOL SMILES: "Cc1nc(N[C@H](C)c2cccc(C(F)F)c2F)c2cc3c(cc2n1)OC[C@H]1CN(C(=O)C2(C#N)CC2)CCN31"
  CLASS: "false (0)"
- MOL SMILES: "Cc1nc(N[C@H](C)c2cccc(C(F)F)c2F)c2cc3c(cc2n1)OC[C@H]1CN(C(=O)C2CCOCC2)CCN31"
  CLASS: "true (1)"

###

t1/2 by entry:
ASSAY INFO: Half life in ICR mouse at 20 mg/kg, po by LC-MS/MS analysis
Type: ADME, organism-based
ASSAY CONDITIONS: in vivo, po, 20 mg/kg

- COMPOUND: "Cc1nc(N[C@H](C)c2cccc(C(F)F)c2F)c2cc3c(cc2n1)OC[C@H]1CN(C(=O)NC2CC2)CCN31"
  t1/2 [h]: 12.6
- COMPOUND: "Cc1nc(N[C@H](C)c2cccc(C(F)F)c2F)c2cc3c(cc2n1)OC[C@H]1CN(C(=O)[C@H]2CCOC2)CCN31"
  t1/2 [h]: 11.4
- COMPOUND: "Cc1nc(N[C@H](C)c2cccc(C(F)F)c2F)c2cc3c(cc2n1)OC[C@H]1CN(C(=O)C2CCO2)CCN31 (some centres undefined)"
  t1/2 [h]: 14.3
- COMPOUND: "CNC(=O)N1CCN2c3cc4c(N[C@H](C)c5cccc(C(F)F)c5F)nc(C)nc4cc3OC[C@H]2C1"
  t1/2 [h]: 14.5

###

ASSAY INFO: Tmax in ICR mouse at 20 mg/kg, po by LC-MS/MS analysis
Type: ADME, organism-based
ASSAY CONDITIONS: in vivo
log10 Tmax by entry:
REPORTED METRIC: log10 Tmax (log10 of the value in h)

- COMPOUND: "COCCC(=O)N1CCN2c3cc4c(N[C@H](C)c5cccc(C(F)F)c5F)nc(C)nc4cc3OC[C@H]2C1"
  log10 Tmax: 0.47
- COMPOUND: "Cc1nc(N[C@H](C)c2cccc(C(F)F)c2F)c2cc3c(cc2n1)OC[C@H]1CN(C(=O)N2CCOCC2)CCN31"
  log10 Tmax: -0.30
- COMPOUND: "Cc1nc(N[C@H](C)c2cccc(C(F)F)c2F)c2cc3c(cc2n1)OC[C@H]1CN(C(=O)[C@H]2CCOC2)CCN31"
  log10 Tmax: 0.56
- COMPOUND: "Cc1nc(N[C@H](C)c2cccc(C(F)F)c2F)c2cc3c(cc2n1)OC[C@H]1CN(C(=O)C2CCO2)CCN31 (some centres not stated)"
  log10 Tmax: 0.75
- COMPOUND: "Cc1nc(N[C@H](C)c2cccc(C(F)F)c2F)c2cc3c(cc2n1)OC[C@H]1CN(C(=O)N(C)C)CCN31"
  log10 Tmax: 0.48
- COMPOUND: "Cc1nc(N[C@H](C)c2cccc(C(F)F)c2F)c2cc3c(cc2n1)OC[C@H]1CN(C(=O)C2(F)CC2)CCN31"
  log10 Tmax: 0.18
- COMPOUND: "COc1cc2nc(C)nc(N[C@H](C)c3cc(N)cc(C(F)(F)F)c3)c2cc1O[C@H]1CCOC1"
  log10 Tmax: -0.05
- COMPOUND: "Cc1nc(N[C@H](C)c2cccc(C(F)F)c2F)c2cc3c(cc2n1)OC[C@H]1CN(C(=O)NC2CC2)CCN31"
  log10 Tmax: 0.78
- COMPOUND: "Cc1nc(N[C@H](C)c2cccc(C(F)F)c2F)c2cc3c(cc2n1)OC[C@H]1CN(C(=O)[C@@H]2C[C@H]2F)CCN31"
  log10 Tmax: 0.75
- COMPOUND: "COCC(=O)N1CCN2c3cc4c(N[C@H](C)c5cccc(C(F)F)c5F)nc(C)nc4cc3OC[C@H]2C1"
  log10 Tmax: -0.08
- COMPOUND: "Cc1nc(N[C@H](C)c2cccc(C(F)F)c2F)c2cc3c(cc2n1)OC[C@H]1CN(C(=O)[C@@H]2CCOC2)CCN31"
  log10 Tmax: 0.90
- COMPOUND: "COCC1(C(=O)N2CCN3c4cc5c(N[C@H](C)c6cccc(C(F)F)c6F)nc(C)nc5cc4OC[C@H]3C2)CC1"
  log10 Tmax: -0.60
- COMPOUND: "CC(=O)N1CCN2c3cc4c(N[C@H](C)c5cccc(C(F)F)c5F)nc(C)nc4cc3OC[C@H]2C1"
  log10 Tmax: -0.60
- COMPOUND: "Cc1nc(N[C@H](C)c2cccc(C(F)F)c2F)c2cc3c(cc2n1)OC[C@H]1CN(C(=O)C2CCOCC2)CCN31"
  log10 Tmax: -0.04
- COMPOUND: "Cc1nc(N[C@H](C)c2cccc(C(F)F)c2F)c2cc3c(cc2n1)OC[C@H]1CN(C(=O)C2(C#N)CC2)CCN31"
  log10 Tmax: 0.12
- COMPOUND: "Cc1nc(N[C@H](C)c2cccc(C(F)F)c2F)c2cc3c(cc2n1)OC[C@H]1CN(C(=O)C2COC2)CCN31"
  log10 Tmax: 0.48
- COMPOUND: "CNC(=O)N1CCN2c3cc4c(N[C@H](C)c5cccc(C(F)F)c5F)nc(C)nc4cc3OC[C@H]2C1"
  log10 Tmax: 0.90
